Each recorded value in this set is attributed to patent US12180192B2.

Biological target: THR alpha (Homo sapiens, UniProt P10827)
Construct: expressed in transfected cells; host or cells: HEK293T (ATCC CRL-3216)
Sequence (P10827 1-410 isoform P10827-2): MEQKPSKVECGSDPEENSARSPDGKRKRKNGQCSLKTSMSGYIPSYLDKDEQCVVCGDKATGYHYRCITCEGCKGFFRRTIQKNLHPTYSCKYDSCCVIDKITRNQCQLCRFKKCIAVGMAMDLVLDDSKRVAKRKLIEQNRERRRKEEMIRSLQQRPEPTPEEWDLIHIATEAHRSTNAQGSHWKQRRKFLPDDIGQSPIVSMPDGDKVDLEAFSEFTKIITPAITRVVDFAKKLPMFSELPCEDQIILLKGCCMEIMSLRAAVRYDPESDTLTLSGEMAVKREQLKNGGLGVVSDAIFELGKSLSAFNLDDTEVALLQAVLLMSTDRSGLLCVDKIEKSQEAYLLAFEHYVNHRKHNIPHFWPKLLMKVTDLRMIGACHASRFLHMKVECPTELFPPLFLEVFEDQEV
Sequence (P19793 whole entry partner): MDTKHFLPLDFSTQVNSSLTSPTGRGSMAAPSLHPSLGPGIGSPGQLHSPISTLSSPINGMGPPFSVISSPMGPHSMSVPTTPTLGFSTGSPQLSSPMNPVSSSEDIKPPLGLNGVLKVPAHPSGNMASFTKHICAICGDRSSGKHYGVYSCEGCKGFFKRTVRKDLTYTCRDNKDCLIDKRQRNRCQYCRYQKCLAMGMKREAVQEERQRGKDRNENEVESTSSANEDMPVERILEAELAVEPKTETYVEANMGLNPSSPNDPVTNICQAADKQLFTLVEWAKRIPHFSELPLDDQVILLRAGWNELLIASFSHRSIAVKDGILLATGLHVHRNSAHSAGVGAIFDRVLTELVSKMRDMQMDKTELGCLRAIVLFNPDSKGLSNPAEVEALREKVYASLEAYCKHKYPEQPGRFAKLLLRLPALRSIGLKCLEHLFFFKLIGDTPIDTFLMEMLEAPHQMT
Experiment: HEK293T THR alpha/RXR luciferase reporter assay (Assay 2)
Format: cell-based
Settings: HEK-293T, Table 5; Assay 2; THRα; read-out: Activity category Assay 2 THRα (Emax)
Each item that follows carries a reported Emax.

Solved cases (5 shown):
Recorded Emax of Nc1nn(-c2cc(Cl)c(Oc3cc(C4Cc5ccccc54)c(=O)[nH]n3)c(Cl)c2)c(=O)[nH]c1=O (stereo not shown) , please. < 50%

# get_value(readout='Emax', item= O=c1cc(-c2ccc3c(c2)CCCC3)c(Oc2c(Cl)cc(-n3ncc(=O)[nH]c3=O)cc2Cl)n[nH]1 ) < 50%

Endpoint output: Emax of Nc1nn(-c2cc(Cl)c(Oc3n[nH]c(=O)cc3-c3cc4ccccc4cn3)c(Cl)c2)c(=O)[nH]c1=O . Value? < 50%

Item under review: CC1(C)C(=O)Nc2ccc(Oc3c(Cl)cc(-n4nc(N)c(=O)[nH]c4=O)cc3Cl)cc21 . Reported Emax? > 75%

Name the reported Emax value associated with the compound Cc1cc(-n2nc(C#N)c(=O)[nH]c2=O)cc(C)c1Cc1ccc2[nH]nc(C(C)C)c2c1 > 75%

More entries:
Reported Emax, compound CC(C)(O)c1cc(Oc2c(Cl)cc(-n3nc(N)c(=O)[nH]c3=O)cc2Cl)n[nH]c1=O : ____ > 75%

So what's the measured Emax for this one? Cc1cc(-n2nc(N)c(=O)[nH]c2=O)cc(C)c1Cc1cc2c(C(C)C)c[nH]c2cn1 50 to 75%
